Just for reference, ChEMBL document CHEMBL4265871 is where these values come from.

Below is a list of entries, each paired with its recorded selectivity ratio value.
assay: Selectivity index, ratio of EC50 for toxicity in human A549 cells to MIC50 for antifungal activity against ITC and FLC-susceptible Candida albicans ATCC MYA-2876; type: cell-based; details: read-out: Selectivity Index
readout-label: selectivity ratio

• CC[C@@H]([C@H](C)O)n1ncn(-c2ccc(N3CCN(c4ccc(OC[C@@H]5CO[C@@](Cn6cncn6)(c6ccc(F)cc6F)C5)cc4)CC3)cc2)c1=O = 5
• CCCCCCC(O)(Cn1cncn1)c1ccc(Cl)cc1 (centres undefined) = 5
• CCCC(O)(Cn1cncn1)c1ccc(Cl)cc1Cl (centres undefined) = 16
• CCCCCCC(O)(Cn1cncn1)c1ccc(F)cc1 (centres undefined) = 4

====

assay: Selectivity index, ratio of EC50 for toxicity in human A549 cells to MIC50 for antifungal activity against Candida albicans ATCC 64124; type: cell-based; details: read-out: Selectivity Index
readout-label: selectivity ratio

• CCCCCCC(O)(Cn1cncn1)c1ccc(F)cc1 (stereo unspecified) = 1
• CCCCCC(O)(Cn1cncn1)c1ccc(Cl)cc1 (stereo unspecified) = 4
• CCCCCC(O)(Cn1cncn1)c1ccc(F)cc1F (stereo unspecified) = 4
• CCCCCC(O)(Cn1cncn1)c1ccccc1Cl (stereo unspecified) = 1
• CCCCCC(O)(Cn1cncn1)c1ccc(F)cc1 (stereo unspecified) = 1
• CCCCCCC(O)(Cn1cncn1)c1ccccc1F (stereo unspecified) = 1

====

Below is a list of entries, each paired with its recorded hemolysis at 1 h, 62.5 ug/ml value.
test: in vitro; conditions: mouse, mouse erythrocytes
Description: Hemolytic activity in mouse erythrocytes assessed as hemolysis level at 62.5 ug/ml incubated for 1 hr at 37 degC
readout-label: hemolysis at 1 h, 62.5 ug/ml (%)

- CCCCCC(O)(Cn1cncn1)c1ccccc1F (centres undefined): 0
- CCCCCCCCC(O)(Cn1cncn1)c1ccc(F)cc1F (centres undefined): 69
- CCCCCCC(O)(Cn1cncn1)c1ccc(Cl)cc1Cl (centres undefined): 98
- CCCCCC(O)(Cn1cncn1)c1ccc(F)cc1F (centres undefined): 25.2
- CCCCCC(O)(Cn1cncn1)c1ccc(Cl)cc1Cl (centres undefined): 100
- CCCCCCC(O)(Cn1cncn1)c1ccc(Cl)cc1 (centres undefined): 83.9
- OC(Cn1cncn1)(Cn1cncn1)c1ccc(F)cc1F [FLUCONAZOLE]: 2.7
- CCCCCCC(O)(Cn1cncn1)c1ccccc1F (centres undefined): 28.8
- CCCCCC(O)(Cn1cncn1)c1ccccc1Cl (centres undefined): 0
- CCCCCCC(O)(Cn1cncn1)c1ccccc1Cl (centres undefined): 81.7
- CCCCC(O)(Cn1cncn1)c1ccc(Cl)cc1Cl (centres undefined) [HEXACONAZOLE]: 59
- CCCCCCC(O)(Cn1cncn1)c1ccc(F)cc1 (centres undefined): 7
- CCCCCCC(O)(Cn1cncn1)c1ccc(F)cc1F (centres undefined): 26.3
- CCCCC(O)(Cn1cncn1)c1ccc(F)cc1F (centres undefined): 0

====

experiment: Selectivity index, ratio of EC50 for toxicity in human BEAS2B cells to MIC50 for antifungal activity against ITC and FLC-susceptible Candida albicans ATCC MYA-2876; type: cell-based; conditions: BEAS-2B cells, read-out: Selectivity Index
readout-label: selectivity ratio

• CCCCCC(O)(Cn1cncn1)c1ccc(Cl)cc1Cl (configuration not stated) = 32
• CCCCCCC(O)(Cn1cncn1)c1ccccc1F (configuration not stated) = 32
• CCCCCC(O)(Cn1cncn1)c1ccc(Cl)cc1 (configuration not stated) = 2
• CCCCCC(O)(Cn1cncn1)c1ccc(F)cc1 (configuration not stated) = 4
• CC[C@@H]([C@H](C)O)n1ncn(-c2ccc(N3CCN(c4ccc(OC[C@@H]5CO[C@@](Cn6cncn6)(c6ccc(F)cc6F)C5)cc4)CC3)cc2)c1=O [POSACONAZOLE] = 3
• CCCCCCC(O)(Cn1cncn1)c1ccc(F)cc1 (configuration not stated) = 4
• CCCCCCCCC(O)(Cn1cncn1)c1ccc(F)cc1F (configuration not stated) = 7
